- MEASURED ON: T1, mouse PTH1R overexpressed on CHO cells (mouse, UniProt P41593 27-591)
- T1 sequence (looked up): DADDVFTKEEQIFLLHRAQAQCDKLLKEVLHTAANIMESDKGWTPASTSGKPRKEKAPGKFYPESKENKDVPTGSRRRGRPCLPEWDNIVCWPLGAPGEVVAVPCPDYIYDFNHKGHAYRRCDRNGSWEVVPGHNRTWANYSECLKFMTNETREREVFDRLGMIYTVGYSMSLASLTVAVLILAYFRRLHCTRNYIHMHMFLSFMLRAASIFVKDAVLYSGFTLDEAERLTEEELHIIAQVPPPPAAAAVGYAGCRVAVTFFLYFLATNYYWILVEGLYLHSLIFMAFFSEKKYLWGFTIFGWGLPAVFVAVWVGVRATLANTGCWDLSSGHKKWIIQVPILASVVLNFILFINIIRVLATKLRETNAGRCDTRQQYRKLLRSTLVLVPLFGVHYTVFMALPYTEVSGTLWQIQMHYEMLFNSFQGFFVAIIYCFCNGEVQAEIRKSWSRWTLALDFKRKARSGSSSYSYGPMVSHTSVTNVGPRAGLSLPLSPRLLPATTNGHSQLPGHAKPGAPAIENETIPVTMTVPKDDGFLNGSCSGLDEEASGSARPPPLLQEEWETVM
- EXPERIMENTAL DETAILS: cell-based or functional assay
READOUT TYPE: IC50, inhibition of PTHrP(1-34)-induced cAMP accumulation
Report field: quantity (unit follows the number).

BINDER	REPORTED MEASUREMENT
XPA.85.333 (antibody, V domains shown, Light-chain-shuffled variant of XPA.85.012) VH: QMQLVQSGAEVKKPGSSVKVSCKASGGTFSSYAISWVRQAPGQGLEWMGGIIPIFGTANYAQKFQGRVTITADESTSTAYMELSSLRSEDTAVYYCARGYVVARLWGQGTLVTVSS VL: DVVMTQTPLSLSVTPGQPASISCKSSQSLLHIDGKAYLYWYLQKPGQSPHLLIREVSTRFSGVSDRFTGSGSGTDFTLEISRVEAEDVGVYYCMQGLHLPPTFGQGTKVEIK	2.04 nM

Challenge: Param item = XPA.85.346 (antibody, V domains shown, Light-chain-shuffled variant of XPA.85.012) VH: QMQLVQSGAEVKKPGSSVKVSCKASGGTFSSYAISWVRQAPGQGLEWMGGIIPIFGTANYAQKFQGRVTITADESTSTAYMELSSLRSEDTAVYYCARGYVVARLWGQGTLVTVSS VL: DIVMTQTPLSLSVTPGQPASITCKSSQSLLHIDGKTYLYWFLQKPGQPPQLLIYEVSNRFSGVPDRFSGSGSGTDFTLKISRVEAEDVGLYYCMQSLHLPITFGQGTRLEIK ; retrieve measured IC50, inhibition of PTHrP(1-34)-induced cAMP accumulation.
Response given: 3.57 nM
